Assay: Ionization constant of chromophore measured by UV spectroscopy in 20% dimethylformamide.
Type: physicochemical
Kind request: treat 3 as inclusive, so pKa at 3 or higher is class 1, anything lower is class 0.

Quick check: does "CN(C)CCNC(=O)c1cccc2cc(-c3ccccc3)cnc12" have pKa greater than or equal to 3? class 0

Quick check: does "CN(C)CCNC(=O)c1cccc2ccc(-c3ccccc3)nc12" have pKa greater than or equal to 3? class 0

Quick check: does "CN(C)CCNC(=O)c1ccc(-c2ccccc2)c2cccnc12" have pKa greater than or equal to 3? class 1

* * *

Organism: Mus musculus
Assay: Percentage increase in lifespan of treated animals(at the optimal dose) compared to controls. Average lifespan of control animals was 11 days (P388).
Type: functional
READOUT_LABEL: ILS max (%)
# value in %; strip the unit string

Return value of ILS max for input "CN(C)CCNC(=O)c1cccc2ccc(-c3ccccc3)nc12" , no commentary. 91

Return value of ILS max for input "CN(C)CCNC(=O)c1cccc2cc(-c3ccccc3)cnc12" , no commentary. 27

Return value of ILS max for input "CN(C)CCNC(=O)c1cccc2cc3ccccc3nc12" , no commentary. 91

src = ChEMBL document CHEMBL1124103
